- TEST_DETAILS: NCI Yeast Anticancer Drug Screen. Data for the sgs1 mgt1 strain (AID 161);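 further: 0% = growth of cultures given vehicle only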
- CONDITION_LABEL: S. cerevisiae sgs1 mgt1 strain, at 5.0 µM (retest, dose inferred, filed as 0.5)
About 79,000 compounds went through this panel and 15% of them were active in at least one assay; those are over-represented in the sample as a whole. Active and inactive are the calls of the source. No stated cut-off is given here; in the data, active means growth inhibition above about 70%; inactive means the rest.
Possible outcomes: yes for active, no for inactive

| COMPOUND | CLASS_ASSIGNMENT |
| --- | --- |
| COc1cc2c(ccc3cc4cccc[n+]4cc32)c(Br)c1OC | no |
| Cc1ccc(C)c(NC(=O)CCC(=O)C(C#N)c2cccc3ccccc23)c1 (stereo unspecified) | no |
| CC(=O)C1C(S)CC2C3CC=C4CC(O)CCC4(C)C3CCC21C (stereo unspecified) | no |
| Cc1cc(I)cc(I)c1O | no |
| c1cc(C2=NCCN2)ccc1Nc1ccc(-c2cc3ccc(C4=NCCN4)cc3[nH]2)cc1 | yes |
| CCC(c1ccc(O)c(C2CCCCC2)c1)C(CC)c1ccc(OC(=O)c2ccccc2)c(C2CCCCC2)c1 (stereo unspecified) | no |
| O=Nc1cc(-c2ccccc2)c2ccccc2c1O | no |
| Oc1c(Cl)cc(Br)cc1Cl | no |
| CCOc1ccc(-c2nc3ccc(-c4nc5ccc(N6CCN(C)CC6)cc5[nH]4)cc3[nH]2)cc1 | no |
| CC(=O)c1cc(-c2ccc(C)cc2)nc2c(C)cc(C)cc12 | no |
| CCCCCCCC/C=C1\CCC(CN(C)C)C1=O (stereo unspecified) | no |

====

Measured growth inhibition by item
- TEST_DETAILS: NCI Yeast Anticancer Drug Screen. Data for the mlh1 rad18 strain (AID 175)
- CONDITION_LABEL: S. cerevisiae mlh1 rad18 strain growth inhibition; at 50.0 µM (retest, dose inferred, filed as 5.0); hits give high values
Compounds without any hit were thinned out: in the full panel of roughly 79,000, 15% have a hit.
MEASURED_QUANTITY: growth inhibition (%)

| MOLECULE | REPORTED_RESULT |
| --- | --- |
| O=C(O)Cc1ccccc1CCc1ccccc1Cl | 83 |
| CN(C)CCC1(C2=CCCC2)CC/C(=C\c2ccccc2Cl)C1=O (stereo unspecified) | 92 |
| COc1cc(/C=C(\C#N)c2ccc([N+](=O)[O-])cc2)ccc1O | 57 |
| CNC(=O)N1N[C@H](c2ccccc2)[C@@H]1c1ccccc1 | 60 |
| Clc1ccc(-c2noc(CN3CCCCC3)n2)cc1 | 24 |
| COc1cccc(C2c3cc4c(cc3OC(Nc3ccccc3)C2C)OCO4)c1O (stereo unspecified) | 97 |
| Clc1ccc(CN2CCCN(Cc3ccc(Cl)cc3)C2C2CCC=CO2)cc1 (stereo unspecified) | 36 |
| COC(=O)CCC(NC(=S)N/N=C/c1ccccn1)C(=O)OC (stereo unspecified) | 48 |
| C/C=C(\C)C(=O)OC1C(C)C2(O)C(C=C(CO)CC3(O)C(=O)C(C)=CC32)C2C(C)(C)C12OC(=O)CCCCCCCCC (stereo unspecified) | 86 |
| CC1N=C(Cc2ccccc2)SC1C (stereo unspecified) | 84 |
| O=C1CCCCCC1Cc1cc(O)c(CC2CCCCCC2=O)cc1O (stereo unspecified) | 88 |

====

- TEST_DETAILS: NCI Yeast Anticancer Drug Screen. Data for the mec2-1 strain (AID 157)
- CONDITION_LABEL: S. cerevisiae mec2-1 strain, at 5.0 µM (retest, dose inferred, filed as 0.5), hits give high values
- Procedure: Growth inhibition of yeast strains with defined genetic alterations is measured as a screen for potential anti-cancer activity. Selected strains with alterations in DNA damage repair or cell cycle control were exposed to compounds and growth inhibition was measured relative to vehicle treated controls. The strain used in this assay is mec2-1
Compounds without any hit were thinned out: in the full panel of roughly 79,000, 15% have a hit.

| MOLECULE | UNIT_TAG | growth inhibition |
| --- | --- | --- |
| CCc1ccccc1NC(=O)C1=C(C)NC(C)=C(C(=O)Nc2c(CC)cccc2CC)C1c1ccc2c(c1)OCO2 (stereo not given) | % | 22 |
| O=C(O)c1ccc(/C=C2\COc3ccccc3C2=O)cc1 | % | 14 |
| COc1ccc(CC[N+]2(C)COc3cc4oc(=O)cc(C)c4cc3C2)cc1OC (stereo not given) | % | 0 |
| Cn1cc(C2=CC(=O)C=CC2=O)c2ccccc21 | % | 8 |
| O=C(O)/C(Cl)=C(\Cl)C(=O)Nc1cccc(C(F)(F)F)c1 | % | 56 |
| N[C@H](C(=O)O)[C@@H]1CC(Cl)=NO1 | % | 98 |
| Oc1ccc2ccc3ccccc3c2c1 | % | 2 |
| COC1C=COC2(C)Oc3c(C)c(O)c4c(O)c(c(C5SCCS5)c(O)c4c3C2=O)NC(=O)C(C)=C/C=C\C(C)C2OC(C)(C)OC(C2C)C(C)C(OC(C)=O)C1C (stereo not given) | % | 8 |
| CC(=O)C1C(S)CC2C3CC=C4CC(O)CCC4(C)C3CCC21C (stereo not given) | % | 7 |
| CN(C)CCC(=O)C(=Cc1cc(Cl)cc(Cl)c1)C(=O)CCN(C)C | % | -19 |

====

- TEST_DETAILS: NCI Yeast Anticancer Drug Screen. Data for the rad50 strain (AID 155);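 further: 0% = growth of vehicle-only cultures of the same strain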
- CONDITION_LABEL: S. cerevisiae rad50 strain growth inhibition; at 50.0 µM; hits give high values
About 79,000 compounds went through this panel and 15% of them were active in at least one assay; those are over-represented in the sample as a whole.
Is growth inhibition at least 10%? Then fulfilled. If not, not fulfilled.

| MOLECULE | CLASS_ASSIGNMENT |
| --- | --- |
| C=C1C[C@@]2(OC)OCC[C@H]3C(C)=CCC(C1=O)[C@]32C(=O)OC (stereo partly specified) | fulfilled |
| Cc1c(C#N)c(N)nc2c(C(N)=O)nsc12 | fulfilled |
| O=C(O)CCSCc1cc(C(=O)Nc2ccc(/C=C/c3ccc(NC(=O)c4cc(CSCCC(=O)O)c5cccnc5c4O)cc3S(=O)(=O)O)c(S(=O)(=O)O)c2)c(O)c2ncccc12 | fulfilled |
| Nc1ccc(Sc2c3ccccc3nc3ccccc23)cc1 | fulfilled |
| CCCCC(=O)N/N=C/c1ccc([N+](=O)[O-])s1 | fulfilled |
| COC(=O)c1cc(OC)c(OC)c(OC)c1 | not fulfilled |
| CC(C)CC(NC(=O)COc1c(Cl)cc(Cl)c(Cl)c1Cl)C(=O)O (stereo unspecified) | fulfilled |
| FC(F)(F)c1[nH]nc(-c2cc3ccccc3o2)c1N=NN1CCOCC1 | fulfilled |
| CCOC(=O)CCc1ccc(OC)c(OC)c1 | not fulfilled |
| O=CNNC(=O)Nc1ccc(Cl)cc1 | not fulfilled |
| CCN(CC)CCNCc1ccccc1 | not fulfilled |

====

Measured growth inhibition by item
- TEST_DETAILS: NCI Yeast Anticancer Drug Screen. Data for the bub3 strain (AID 167)
- CONDITION_LABEL: S. cerevisiae bub3 mutant strain, at 50.0 µM, hits give high values
The panel holds about 79,000 compounds, 15% with a hit somewhere; the sample as a whole holds those more often. The source made the active and inactive calls. Rule as the data show it: active = growth inhibition above about 70%; inactive = the rest.

| MOLECULE | growth inhibition |
| --- | --- |
| CSc1nc(=S)c2[nH]c(C)nc2[nH]1 | 99.6% (active) |
| COC(=O)c1nc(=S)[nH]c(C(=O)OC)c1C(=O)c1ccc2ccccc2c1 | 71.1% (active) |
| O=C(O)CCSSCCCCCS(=O)O | 13% (inactive) |
| Cc1cc(Cl)ccc1OCC(=O)Oc1c(Cl)c(Cl)c(Cl)c(Cl)c1Cl | 68.9% (inactive) |
| CC1SC(=S)N(c2ccc(Cl)cc2)C1=O (configuration not stated) | 85.5% (active) |
| O=C1/C(=C/O)CCc2c1ccc1ccccc21 | 98.9% (active) |
| CCOC(=O)/C(=C/c1ccc2ccccc2c1)P(=O)(OCC)OCC | 75.5% (active) |
| N=C(N)SC1c2ccccc2-c2cc([N+](=O)[O-])ccc21 (configuration not stated) | 98% (active) |
| Nc1nc(-c2ccccc2)c(-c2ccccc2)c(-c2nc(N)nc(-c3ccccc3)c2-c2ccccc2)n1 | -17.1% (inactive) |
| S=c1nc(N2CCCCC2)ss1 | 46.5% (inactive) |
| Cc1cc(C(C)(CC(C)C)c2ccc(O)c(C)c2)ccc1O | 91.4% (active) |
| NNc1c(Cl)c(F)c(Cl)c(F)c1Cl | 54.7% (inactive) |
| Cc1ccc(N=C(N)NN=C(c2ccc(Cl)cc2)c2ccc(Cl)cc2)cc1 | 97.2% (active) |
| O=C1NC(=O)N(c2ccc([N+](=O)[O-])cc2)C1=O | -4.4% (inactive) |
| Cc1c(N)cc(I)cc1[N+](=O)[O-] | 56.8% (inactive) |
| COc1cc(OC)cc(C2OC3=C(Nc4ccc([N+](=O)[O-])cc4N3)C2=O)c1 (configuration not stated) | 51.2% (inactive) |
| CCOC1=C(NC(C)=O)C(=O)c2ccccc2C1=O | 94.7% (active) |
| O=NN(CCCl)C(=O)Oc1cc(Cl)c(Cl)cc1Cl | 92% (active) |
| CCCCCCCCCCCCCCCCCO | 75.2% (active) |
| N=C(N)c1ccc2oc3ccc(C(=N)N)cc3c(=O)c2c1 | 38% (inactive) |
| CN(Cc1cnc2nc(N)nc(N)c2n1)c1ccc(C(=O)NC(CCC(=O)O)C(=O)O)cc1 (configuration not stated) | -9.7% (inactive) |
| CCC[CH2][Ge]([CH2]CCC)([CH2]CCC)[O]C(C)=O | 19.2% (inactive) |
| OCc1ccc(OCc2ccccc2)c(OCc2ccccc2)c1 | 94.5% (active) |
| Clc1ccc(-c2nc3ccc(Cl)cc3[nH]2)cc1 | 88% (active) |
| CCN(CC)CCNc1c(C)ccc2cccnc12 | 53.8% (inactive) |
| Cc1ccc2nc(C[n+]3ccc4ccccc4c3)ccc2c1 | 43% (inactive) |
| CCC(=O)Sc1ccccc1C(=O)Nc1ccc(Cl)cc1 | 56.4% (inactive) |
| N#CC(C#N)=C(c1ccccc1)c1ccccc1 | 99.3% (active) |
| CN1C=CC(C(O)(c2ccccc2)c2ccccc2)CC1 (configuration not stated) | 16.7% (inactive) |
| CC(N)C(O)c1ccc2ccc3ccccc3c2c1 (configuration not stated) | 66.9% (inactive) |
| O=C(O)CC(CCCc1ccccc1)C(=O)O (configuration not stated) | -1.1% (inactive) |
| CC(=O)c1c(CO[N+](=O)[O-])n([O-])c2ccccc2[n+]1=O | 15.7% (inactive) |
| COc1cc2oc(-c3ccc(O)cc3O)c(CC=C(C)C)c(=O)c2c(O)c1/C=C/C(C)C | 88.8% (active) |
| O=c1oc2cc(N=Cc3ccc4c(c3)OCO4)ccc2c2ccccc12 | 25.6% (inactive) |
| O=C1NC(=O)/C(=C/C=C/c2ccccc2)S1 | 48.1% (inactive) |
| COC(=O)[C@@]12OC[C@]34[C@H]([C@@H](O)[C@@H]1O)[C@@]1(C)[C@H](O)C(=O)C=C(C)[C@@H]1C[C@H]3OC(=O)C(OC(C)=O)[C@@H]24 (some centres not stated) | 90.5% (active) |
| CN(C)c1ccc(C(c2cc3c(cc2O)OCO3)N2CCCCC2)cc1 (configuration not stated) | 99.3% (active) |
| Clc1ccccc1CN1COc2c(ccc3cccnc23)C1 | 26.1% (inactive) |
| CC(NNC(=S)N1CC2CCC(CC2)C1)c1cc2ccccc2cn1 (configuration not stated) | 98.2% (active) |
| CCCCCCCCCCCCCC(=O)OCC(O)CO (configuration not stated) | 8.05% (inactive) |
| CC(=O)OC1(c2ccccc2)N=C(c2ccccc2)N=C1c1ccccc1 (configuration not stated) | 41.9% (inactive) |
| COc1ccc2nc3cc(Cl)ccc3c(Nc3ccc(O)c(CNCCO)c3)c2c1 | -7.15% (inactive) |
| CC(=O)Nc1cccc2ccc(C)cc12 | 23.1% (inactive) |
| CCCCCCCCCCCCCCCC[N+](C)(CCO)Cc1cnc[nH]1 (configuration not stated) | 88% (active) |
| COC1C=COC2(C)Oc3c(C)c(O)c4c(O)c(c(C5SCCS5)c(O)c4c3C2=O)NC(=O)/C(C)=C\C=CC(C)C(O)C(C)C(O)C(C)C(OC(C)=O)C1C (configuration not stated) | 95.8% (active) |
| NC(CCC(=O)NC(CS(=O)(=O)O)C(=O)O)C(=O)O (configuration not stated) | 13.4% (inactive) |
| N[C@H](C(=O)O)[C@@H]1CC(Cl)=NO1 | 88.5% (active) |

Data origin, for the record: PubChem BioAssay (NCI)
